# assay-text: NCI Yeast Anticancer Drug Screen. Data for the bub3 strain (AID 167)
# run-conditions: S. cerevisiae bub3 mutant strain, at 5.0 µM (retest, dose inferred, filed as 0.5), stronger effect = higher value
This is part of a sample that, as a whole, favours compounds with a hit. Of some 79,000 tested, about 15% had one in any assay.
Give rule met when the value for growth inhibition is at least 10%. Give rule not met when it is less.

INSERT INTO results (compound, class_label) VALUES
  ('COC(=O)/C=C(/CC(=O)OC)C(=O)OC', 'rule not met'),
  ('C[Si](C)(C)/C=C/CCNC(C#N)c1ccccc1 (stereo not drawn)', 'rule met'),
  ('O=[N+]([O-])c1ccc(N/N=C/Cc2ccccc2)c([N+](=O)[O-])c1', 'rule not met'),
  ('Cc1cc(C(C)(C)CC(C)(C)C)ccc1O', 'rule not met'),
  ('CN(CCN(C)Cc1ccccc1)Cc1ccccc1', 'rule met'),
  ('CN(C)c1nc(=Nc2cccc(Cl)c2)ss1', 'rule met'),
  ('CCOC1=C/C(=N\Nc2ccc([N+](=O)[O-])cc2)CCC1', 'rule not met'),
  ('CC(C)(C)c1ccc(NS(=O)(=O)c2ccc(N)cc2)cc1', 'rule met'),
  ('Cc1cc(O)c(C(C)C)cc1C1(c2cc(C(C)C)c(O)cc2C)OC(=O)c2ccccc21', 'rule not met'),
  ('O=C1c2ccccc2C(=O)c2cc(CCl)ccc21', 'rule met'),
  ('CNCCCNc1c2ccccc2nc2cccc([N+](=O)[O-])c12', 'rule met'),
  ('Cc1cc(C)c(NC(=S)NC(=O)c2ccccc2)cc1C', 'rule not met');

###

// values below are reported growth inhibition
# assay-text: NCI Yeast Anticancer Drug Screen. Data for the mlh1 strain (AID 171);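 further: 0% = growth of vehicle-treated control cultures of the same strain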
# run-conditions: S. cerevisiae mlh1 strain growth inhibition; at 3.7 µM; stronger effect = higher value
About 79,000 compounds went through this panel and 15% of them were active in at least one assay; those are over-represented in the sample as a whole.
measured-property: growth inhibition (%)

INSERT INTO results (molecule, measured_property, quantity_unit, obs_value) VALUES
  ('O=C1CC(=O)c2ccccc21', 'growth inhibition', '%', 0),
  ('COc1cc(/C=C2\CCC/C(=C\c3ccc(O)c(OC)c3)C2=O)ccc1O', 'growth inhibition', '%', -2),
  ('NC(=S)NC(=S)Nc1ccccc1', 'growth inhibition', '%', 0),
  ('COc1ccc(C/C=N/Nc2ccc([N+](=O)[O-])cc2)cc1OC', 'growth inhibition', '%', 6),
  ('C[C@]12CC[C@H](O)CC1=CC[C@@H]1C2CC[C@]2(C)C(=O)NC(=O)CC12 (stereo partly specified)', 'growth inhibition', '%', -3),
  ('CCOc1c(N=Nc2ccccc2OC)c(C)nn1C(=S)S', 'growth inhibition', '%', 0);

###

# assay-text: NCI Yeast Anticancer Drug Screen. Data for the mlh1 strain (AID 171);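 further: 0% = growth of vehicle-treated control cultures of the same strain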
# run-conditions: S. cerevisiae mlh1 strain growth inhibition; at 33.0 µM; stronger effect = higher value
Compounds without any hit were thinned out: in the full panel of roughly 79,000, 15% have a hit.
Recorded growth inhibition, one value per entry.
measured-property: growth inhibition (%)

INSERT INTO measurements (compound, quantity_unit, obs_value) VALUES
  ('CC1=CC(=C(c2ccc(N)cc2)c2ccc(N)cc2)C=CC1=N', '%', -3),
  ('O=C1Nc2ccc(Br)cc2C1=Nc1ccc2c(c1)OCO2', '%', -30),
  ('Cc1c(C)c(C)c(CSC(=N)N)c(C)c1C', '%', 77),
  ('O=[N+]([O-])c1cc[n+]([O-])cc1', '%', -3),
  ('NC1=NNC2(C(N)=N1)c1ccccc1-c1ccccc12', '%', 53),
  ('Oc1ccc(SCc2ccc(NCc3ccccc3)cc2)cc1', '%', 18),
  ('CCCCC/C(=C(\C#N)C(=O)OCC)c1ccccc1', '%', 10),
  ('O=C(CC(C(=O)O)N1CCOCC1)c1ccccc1 (stereo not drawn)', '%', 37),
  ('O=C1C=C(N2CCN(c3ccccn3)CC2)C(=O)c2c(O)ccc(O)c21', '%', 42),
  ('CN1C(=O)c2ccc3ccccc3c2C1=O', '%', 29),
  ('COc1ccc(C(=O)c2ccccc2C(=O)c2ccccc2OC)cc1', '%', 4),
  ('O=c1ccc(=O)n(-c2ccccc2)[nH]1', '%', 87),
  ('CCOC(=N)c1ccc(O)c(OC)c1', '%', 1),
  ('Clc1ccc(NCNC2Nc3ccccc3N2)cc1Cl', '%', 71),
  ('O=C1c2ccccc2C(=O)c2cc(CCl)ccc21', '%', 9),
  ('S=C1SCN(C2CCCCC2)CN1C1CCCCC1', '%', -5),
  ('CC12C(=O)OC(=O)C(c3ccccc31)c1ccccc12', '%', -6),
  ('CNC(=O)OCc1c(COC(=O)NC)c(-c2ccc(Cl)cc2)n2c1CCC2', '%', 10),
  ('CCC(C)NC1=NCC(C)S1 (stereo not drawn)', '%', -36),
  ('CCO/C(C)=C(/C#N)C(N)=S', '%', -3),
  ('CC1=C(C(=O)NCc2ccccc2)C(c2ccccc2)C(C(=O)NCc2ccccc2)=C(C)N1', '%', 8),
  ('COc1ccc(C2C3=C(COC3=O)OC(C)(C)Oc3cc4c(cc32)OCO4)cc1OC (stereo not drawn)', '%', 57),
  ('Nc1ncnc2c1ncn2C1OC(CO)CC1O (stereo not drawn)', '%', 66);
